Tested on: HCC 2998
Test method notes: NCI tumour cell line growth inhibition, 48 h
The source made the active and inactive calls. Cut-off read from the data, not from the text of the source: active = GI50 up to about 1.1 µM and inactive = higher.
Reported metric: GI50

Given the entry "O=S(O)CCCSSc1ccccc1" , report its measured GI50.
76.9 µM (inactive)

What value of GI50 has been reported for the following compound? C=C1CC2OC2(C(=O)O[C@H]2CCC3[C@@H]4CCC5=CC(=O)CC[C@]5(C)C4CC[C@@]32C)C1=O (stereo not given in full)
31.6 µM (inactive)

Report GI50 for CCOC(=O)CCC(NC(=O)OCc1ccccc1)C(=O)NC(CCC(=O)OCC)C(=O)NNC(=O)OC(C)(C)C (stereo not given) please.
> 100 µM (inactive)

Quick one: GI50 for "BrCCC[P+](c1ccccc1)(c1ccccc1)c1ccccc1" ?
> 68.4 µM (inactive)

// returns reported GI50 for input "Cc1ccc2c3ccc4c(c3n(C)c2c1)C(=O)C=CC4=O"
> 10 µM (inactive)

Consider the compound shown here: COc1cccc(NC(=O)C(=O)C(C(C)=O)c2nc3ccc(Cl)cc3nc2O)c1 (stereo not given) What is its recorded GI50?
> 100 µM (inactive)

What value of GI50 has been recorded for this entry: "COc1ccc(C#Cn2nnc3ccccc32)cc1"
26.2 µM (inactive)

Would you mind telling me what GI50 value was observed for CC#CC#C/C=C1/O[C@]2(CCC(OC(C)=O)CO2)[C@@H]2O[C@H]12 (stereo not given in full) ?
18.5 µM (inactive)

What value of GI50 has been recorded for this entry: "CCOc1ccc(NC(=O)C2=C(C)NC(C)=C(C(=O)Nc3ccc(OCC)cc3)C2c2ccccc2)cc1"
> 100 µM (inactive)

Consider the compound shown here: "CC(=O)OC/C=C/Cn1ncc(=O)[nH]c1=O" What is its recorded GI50?
> 100 µM (inactive)

Any idea what its GI50 is? The compound is O=C1C(=Cc2ccco2)C(=O)C2CCCCC12 (stereo not given)
> 100 µM (inactive)

I am curious: what GI50 value has been reported for "CC[P+](C)(C)CC" ?
> 100 µM (inactive)

Which GI50 reading was recorded for the compound "Nc1nc(SCC(=O)c2ccccc2)nc2nc3c(c(-c4ccccc4)c12)CCCC3" ?
33 µM (inactive)

Fill blank: measured GI50 of the compound "NS(=O)(=O)c1ccc(NCc2cnc3ccccc3n2)cc1" is ____.
> 100 µM (inactive)

Quick one: GI50 for "Cc1nc(Nc2ccccc2)sc1C(=O)NNc1ccc([N+](=O)[O-])cc1[N+](=O)[O-]" ?
43.7 µM (inactive)

Which value of GI50 has been reported for "[N-]=[N+]=Nc1c(C=O)c(=O)n(-c2ccccc2)c2ccccc12" in the records?
19.1 µM (inactive)

Given "C[C@@H]1S[C@H](c2c(F)cccc2Cl)n2c1nc1ccccc12" , state its recorded GI50.
13.6 µM (inactive)

Suppose we examine the compound "C(/Cc1ccc2c(c1)OCO2)=N\N=C1NCCN1" ; what GI50 value has been reported?
92.3 µM (inactive)

Using the record for C=C[C@]1(C)CC(=O)C(C(C)C=O)[C@]12C(=O)Oc1cccc(C)c1C2=O (stereo not given in full) , report its GI50.
17.7 µM (inactive)

For "Cc1cc2c(cc1C)[n+]([O-])c(C(=O)C/C(=N/NC(=O)CC#N)C(=O)Nc1ccccc1C(F)(F)F)c(C)[n+]2[O-]" , what is its reported GI50?
65.5 µM (inactive)

Quick check: GI50 of "CN(C)c1ccc(-c2nc(N)nc3c2CCCC3)cc1" ?
80 µM (inactive)

Which GI50 reading was recorded for the compound "O=C1C(NCCF)=C(Cl)C(=O)c2ncccc21" ?
1.21 µM (inactive)

Consider the compound CNC(=O)SCC(N)C(=O)O (stereo not given) and give its measured GI50.
> 100 µM (inactive)

Which GI50 value belongs to Cc1ccc(/N=N/c2c(C)c(C#N)c(=S)n(C3OC(CO)C(O)C(O)C3O)c2C)cc1 (stereo not given) ?
21.7 µM (inactive)

Entry COC(=O)C1=C(OC(=O)/C=C/c2ccccc2)C(C(=O)OC)[C@@]2(O)[C@@H](C(=O)OC)[C@H](C)C[C@@H]1[C@@H]2C(=O)OC (stereo not given in full) : reported GI50 = ?
19.4 µM (inactive)

What GI50 value was documented for this compound, CN1CCN2c3ccccc3CC(C#N)(C#N)C2C1 (stereo not given) ?
> 100 µM (inactive)

Item COc1ccc2c(c1OC)CN1CCc3cc4c(cc3C1C2)OCO4 (stereo not given) [TETRAHYDROBERBERINE] has what recorded GI50?
> 100 µM (inactive)

I have this compound here, "O=C(O)CNC(=O)CO/N=C1/C(=C2/C(=O)Nc3ccccc32)Nc2ccccc21" , and I need its recorded GI50.
47 µM (inactive)

Item COC1CC(OC2OC(CO)C(O)C(O)C2O)/C(=C\C#N)C(O)C1OC (stereo not given) has what recorded GI50?
> 100 µM (inactive)

Consider the compound CC(=O)NC1(C)C(C)C2CC1C(C)C2(C)C (stereo not given) and give its measured GI50.
> 100 µM (inactive)

----------
System: LOX IMVI
Test method notes: NCI tumour cell line growth inhibition, 48 h
Active and inactive are the calls of the source. Cut-off read from the data, not from the text of the source: active = GI50 up to about 1.1 µM and inactive = higher.
Exercise: for every item that follows, state its recorded GI50.

Request - read-out GI50 | tested on LOX IMVI | compound C1CC2CN(CCCN3CCOCC3)C(C1)O2 (stereo not drawn)
> 100 µM (inactive)

Quick check: GI50 on LOX IMVI, item "Cc1cc(Cc2cc(C)cc(C(C)(C)C)c2O)c(O)c(Cc2cc(C)cc(C(C)(C)C)c2O)c1" ?
3.1 µM (inactive)

Given the entry "O=C1c2c(ccc3c2CCC3)CC12Cc1ccccc1C2" , what GI50 was observed with LOX IMVI?
12.7 µM (inactive)

# returns recorded GI50 (system: LOX IMVI) for "CCOC(=O)c1c(NC(=O)c2ccccc2)c(C#N)c2n1CCCCC2"
> 100 µM (inactive)

Reported GI50 for LOX IMVI, given CC(SCc1ccccc1)C(=O)O (stereo not drawn) ?
> 100 µM (inactive)

Short answer please: GI50, LOX IMVI, entry COc1cc(C2c3cc4c(cc3CC3COC(=O)N32)OCO4)cc(OC)c1OC (stereo not drawn)
3.14 µM (inactive)

Lookup: GI50 / LOX IMVI / "C=C(CN(C)C)C(=O)c1ccc(Oc2ccccc2)cc1"
5.57 µM (inactive)

Could you share what GI50 was measured for "O=C(OCc1ccc([N+](=O)[O-])cc1)N1c2ccccc2[C@@]23O[C@]24CCC[C@H]3C#C/C=C\C#C[C@H]14" , tested on LOX IMVI?
56.5 µM (inactive)

Notebook entry, LOX IMVI assay: GI50 of COc1ccc(C2SCc3nc4ccccc4n32)cc1 (stereo not drawn) = ?
5.78 µM (inactive)

Any idea what GI50 came out for NC(CCP(=O)(O)CCC1C=CC=CC1)C(=O)O (stereo not drawn) on LOX IMVI?
> 100 µM (inactive)

Give GI50 (LOX IMVI) of the following compound: "O=S(O)CCCSSc1ccccc1"
29.3 µM (inactive)

Return GI50 measured with LOX IMVI given this compound: "O=C(O)[C@@H](NS(=O)(=O)c1ccc([N+](=O)[O-])cc1)c1ccccc1"
> 100 µM (inactive)

I'm curious: which GI50 was measured for "O=C(O)CSc1n[nH]c(=O)[nH]c1=O" tested on LOX IMVI?
> 100 µM (inactive)

----------
Tested on: UACC-257
Test method notes: NCI tumour cell line growth inhibition, 48 h
Activity calls are given as the source filed them. No stated cut-off is given here; in the data, active = GI50 up to about 1.1 µM and inactive = higher.
Provide the reported GI50 of each item.

Given the entry O=C1C(=Cc2ccco2)C(=O)C2CCCCC12 (centres undefined) , report its measured GI50.
> 100 µM (inactive)

Item "CC(=O)c1c(P(=O)(OC(C)C)OC(C)C)nn(-c2ccc([N+](=O)[O-])cc2)c1C" has what recorded GI50?
> 100 µM (inactive)

What GI50 value was documented for this compound, "CCN(CC)C(=O)COc1ccc(Br)cc1Br" ?
> 100 µM (inactive)

Form field: reported GI50 of "C/C(=N\c1ccc(N(C)C)cc1)c1ccccc1"
> 10 µM (inactive)

----------
Tested on: SR
Test method notes: NCI tumour cell line growth inhibition, 48 h
Calls of active or inactive are those of the source. Rule as the data show it: active = GI50 up to about 1.1 µM and inactive = higher.
Reported metric: GI50

Quick one: GI50 of "Cc1ccc2c3ccc4c(c3n(C)c2c1)C(=O)C=CC4=O" ?
1.42 µM (inactive)

What value of GI50 has been reported for the following compound? "O=C(O)CSc1n[nH]c(=O)[nH]c1=O"
> 100 µM (inactive)

Would you mind telling me what GI50 value was observed for "COC(=O)/C(C)=N/N=C(\S)SC" ?
49.7 µM (inactive)

Name the reported GI50 value associated with the compound NC1=CN2c3ccccc3N(CC(=O)N3CCOCC3)C2C=C1 (configuration not stated)
> 100 µM (inactive)

Query (compound): O=C1OC(OCC#CCOC2OC(=O)C(Cl)=C2Cl)C(Cl)=C1Cl (configuration not stated) ; field requested: GI50
2 µM (inactive)

Which GI50 value is on record for "Cc1ccc(-c2cc(C(F)(F)F)nn2-c2ccc(S(N)(=O)=O)cc2)cc1" ?
16.1 µM (inactive)

Give its GI50 value. Item: Cc1ccc(C)c(C(=O)CC2OC(O)C(Cl)C2Cl)c1 (configuration not stated)
44 µM (inactive)

Any idea what GI50 was measured for C[N+](C)(C)[BH-](Br)C(O)O (configuration not stated) ?
> 100 µM (inactive)

Would you mind telling me what GI50 value was observed for "COc1ccccc1NS(=O)(=O)c1ccc2ncn(NS(=O)(=O)c3ccc(Cl)cc3)c(=O)c2c1" ?
63.8 µM (inactive)

Record request: GI50 value, item CN1C(=O)C2C(=O)N(Cc3ccccc3)CC(=O)N2c2cccnc21 (configuration not stated)
> 100 µM (inactive)

What value of GI50 has been reported for the following compound? "O=C1c2ccccc2C(=O)N1CCc1nc(-c2ccccc2)c[nH]1"
> 100 µM (inactive)

Consider the compound "CC(C)(C)C(=O)CC(=O)C(F)(F)C(F)(F)C(F)(F)F" and give its measured GI50.
5.06 µM (inactive)

Return reported GI50; argument: "CC(C)(c1ccc(C=O)o1)c1ccc(C(C)(C)c2ccc(C=O)o2)o1"
> 100 µM (inactive)

What measured GI50 goes with "N#CC(C#N)C(c1ccccc1)c1ccccc1" ?
> 100 µM (inactive)

If you can, please state the reported GI50 value of "CN(C)CCCN=C(N)N" .
> 100 µM (inactive)

// returns reported GI50 for input "COC(=O)c1ccc(NCC2=CC(=O)C=CC2=O)cc1"
5.26 µM (inactive)

What GI50 value was documented for this compound, COC(=O)C(C(=O)C(=O)Nc1ccc(C)cc1)c1nc2ccc([N+](=O)[O-])cc2nc1O (configuration not stated) ?
> 100 µM (inactive)

Fill blank: measured GI50 of the compound "C[N+](C)(C)CC(=O)N/N=C/c1oc(-c2cccc([N+](=O)[O-])c2)c(-c2cccc([N+](=O)[O-])c2)c1[N+](=O)[O-]" is ____.
40.1 µM (inactive)

// GI50 lookup, key: O=C(OC1C(Oc2ccccc2COC(=O)C2(O)C=CCCC2=O)OC(CO)C(O)C1O)c1ccccc1 (configuration not stated)
19.4 µM (inactive)

I would be grateful if you could share the reported GI50 for "COc1cccc(-c2nnc3c(-c4ccccc4)nc4ccccc4n23)c1" .
3.9 µM (inactive)

What does the record list as GI50 for O=C1CCC2(CC1CC[S+]([O-])c1ccccc1)OCCO2 (configuration not stated) ?
> 100 µM (inactive)

May I ask what GI50 has been recorded for "CO[C@@H]1[C@H](OC(=O)NC(=O)CCl)CC[C@]2(CO2)[C@H]1[C@@]1(C)O[C@@H]1CC=C(C)C" ?
5.64 µM (inactive)

# GI50 lookup, item CC#CC#C/C=C1/O[C@]2(CCC(OC(C)=O)CO2)[C@@H]2O[C@H]12 (some centres not stated)
25.9 µM (inactive)

Data request, read-out GI50, for "COc1cc(/C=C(\C#N)C(=O)c2ccccc2)ccc1OCc1ccccc1"
> 100 µM (inactive)

Would you kindly share the measured GI50 for CC12CC(Sc3ccccc3N1)c1ccccc1O2 (configuration not stated) ?
13.6 µM (inactive)

Reported GI50, compound "O=C(/N=c1/[nH]/c(=N/C(=O)c2ccccc2)ss1)c1ccccc1" : ____
24 µM (inactive)

Which GI50 reading was recorded for the compound "CCOC(=O)CN1C(=O)c2ccc(NC(=O)C(=O)O)cc2S1(=O)=O" ?
> 100 µM (inactive)
